The reported measurements were obtained from patent US12240812B2.

Test system: PGE2/EP4 signal transduction in MCF7 cells
assay.notes: Determination of MCF7 cAMP (PGE2-stimulated, HTRF)
Type: cell-based
condition.label: Homo sapiens, MCF7, read-out: MCF7 cAMP IC50
measurement.name: IC50 (nM)
Expressed in nM, but write only the number.

O=C(O)c1ccc(C2(NC(=O)c3cccc4ccn(Cc5ccc(C(F)(F)F)cc5)c34)CC2)cc1 [MF-766, reference compound] = 1.3

Next molecule, please.
What IC50 appears in the records for this molecule with PGE2/EP4 signal transduction in MCF7 cells? C[C@H](NC(=O)c1c(C(F)F)nn(C)c1Oc1cccc(C(F)(F)F)c1)c1ccc(C(=O)O)cc1 [Compound E7046, reference compound]
11.2

* * *

assay.notes: Clearance assay in liver cells
Type: in vitro ADME
condition.label: cryopreserved mouse liver cells (hepatocytes); mouse (ICR/CD-1, male) cryopreserved liver cells, 0-120 min
This section presents compounds with their documented hepatocyte CLint at 1 µM values.
// note: answer is a bare numeric in µL/min/1e6 cells

Solved entries (count: 4):
O=C(NC1(C23CC(C(=O)O)(C2)C3)CC1)c1cccc2ccn(Cc3cc4cc(F)ccc4o3)c12 = 1.93
O=C(NC1(C23CC(C(=O)O)(C2)C3)CC1)c1cccc2ccn(Cc3ccc(-c4ccccc4)cn3)c12 = 19
O=C(NC1(C23CC(C(=O)O)(C2)C3)CC1)c1cc(Cl)cc2ccn(Cc3ccc(-c4ccccc4)cn3)c12 = 34
O=C(NC1(C23CC(C(=O)O)(C2)C3)CC1)c1cccc2ccn(Cc3ccc(C(F)(F)F)cc3)c12 = 7.1

Recorded hepatocyte CLint at 1 µM of O=C(O)c1ccc(C2(NC(=O)c3cccc4ccn(Cc5ccc(C(F)(F)F)cc5)c34)CC2)cc1 [MF-766, reference compound] , please.
12.5

Next compound up: O=C(NC1(C23CCC(C(=O)O)(CC2)CC3)CC1)c1cccc2ccn(Cc3ccc(C(F)(F)F)cc3)c12
20

* * *

assay.notes: Clearance assay in liver cells
Type: in vitro ADME
condition.label: cryopreserved mouse liver cells (hepatocytes); mouse (ICR/CD-1, male) cryopreserved liver cells, 0-120 min
Description: • Liver cell type: mouse • Product catalog: M00505 • Species: ICR/CD-1 • Sex: male • Source: BioreoclmationIVT Procedures: • 1. Preparation of working solution • a. […] All calculations were performed using Microsoft Excel. The peak area was determined by the extracted ion chromatogram. The in vitro half-life (t½) of the parent compound was determined by the regression analysis of the compound disappearance percentage versus time curve. […]
Item-by-item account of hepatocyte CLint at 1 µM
Give just the numeric value; µL/min/1e6 cells need not be written.

Field: example entries. Status: answers known.
C[C@H](NC(=O)c1c(C(F)F)nn(C)c1Oc1cccc(C(F)(F)F)c1)c1ccc(C(=O)O)cc1 [Compound E7046, reference compound] = 20.1
O=C(NC1(C23CC(C(=O)O)(C2)C3)CC1)c1cccc2ccn(Cc3cc4ccccc4o3)c12 = 2.9

Need hepatocyte CLint at 1 µM, item O=C(NC1(C23CC(C(=O)O)(C2)C3)CC1)c1cncc2ccn(Cc3cc4ccccc4o3)c12
1.35
